Ref: the supplement of paper PMC12042874

experimental details: amyloid nucleation score (Sup35N fusion, yeast selection) (log enrichment); library NNK1; higher = more nucleation; inactive = no reads after selection;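 note: zero at mode of non-aggregating sequences after 7 days selection at 30°C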
measurement kind: amyloid nucleation score

{"sequence": "SRYYNILWNKVCRVRDNH", "result": "inactive"}
{"sequence": "VFLKDSTVAGNVMTCDIRVV", "result": 0.078}
{"sequence": "CNTLDLMAFNSLYLSPVSTC", "result": "inactive"}
{"sequence": "TFRFSGYSLNISFKNCEHYV", "result": "inactive"}

----------
experimental details: amyloid nucleation score (Sup35N fusion, yeast selection) (log enrichment); library NNK2; higher = more nucleation; inactive = no reads after selection
measurement kind: amyloid nucleation score

{"substance": "GSKTRFF", "amyloid nucleation score": "inactive"}
{"substance": "TMGGSGDGRY", "amyloid nucleation score": "inactive"}
{"substance": "TANLKDSGQSYFKTRSVWTF", "amyloid nucleation score": "inactive"}
{"substance": "YNNAGGQVDLNLCYGLDVFL", "amyloid nucleation score": "inactive"}

Here is the next item to consider.
Look at this substance and give its reported amyloid nucleation score. WNKYLCFKFRFYLPFVNYWL
inactive
